human MASP1 IC50 by entry:
# assayed-target: T1, Recombinant human MASP1 enzyme (fragment corresponding to amino acids 297-699, C-terminal His Tag) (human, UniProt P48740 297-699)
# T1 sequence: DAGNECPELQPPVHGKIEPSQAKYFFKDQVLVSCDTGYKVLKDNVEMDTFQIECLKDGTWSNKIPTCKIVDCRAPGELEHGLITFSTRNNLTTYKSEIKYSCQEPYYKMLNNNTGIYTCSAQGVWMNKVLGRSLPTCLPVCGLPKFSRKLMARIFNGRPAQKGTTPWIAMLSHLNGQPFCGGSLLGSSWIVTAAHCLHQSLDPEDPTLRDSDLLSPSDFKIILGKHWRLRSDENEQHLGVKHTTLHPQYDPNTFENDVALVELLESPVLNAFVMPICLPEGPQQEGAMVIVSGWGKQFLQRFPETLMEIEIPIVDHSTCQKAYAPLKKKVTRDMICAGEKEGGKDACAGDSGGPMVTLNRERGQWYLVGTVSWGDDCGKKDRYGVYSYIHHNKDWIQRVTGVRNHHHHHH
# experimental-details: cell-based or functional assay
Bridge positions count the residues as written; N and C are the ends. Square brackets hold non-standard residues; d marks the D form. Ends that are not written are not given here. tBuAla = CC(C)(C)C[C@H](N)C(=O)O; Pen = CC(C)(S)[C@H](N)C(=O)O; αMeP = C[C@@]1(C(=O)O)CCCN1; NMeC = CN[C@@H](CS)C(=O)O; Sar = CNCC(=O)O
measurement-label: human MASP1 IC50 (nM)

[[record]]
binder = "[Sar]ICSRSLPPICI[αMeP]D-OH (disulfide 3-11; N-terminus assumed; SMILES CC[C@H](C)[C@H](NC(=O)CNC)C(=O)N[C@H]1CSSC[C@@H](C(=O)N[C@H](C(=O)N2CCC[C@@]2(C)C(=O)N[C@@H](CC(=O)O)C(=O)O)[C@@H](C)CC)NC(=O)[C@H]([C@@H](C)CC)NC(=O)[C@@H]2CCCN2C(=O)[C@@H]2CCCN2C(=O)[C@H](CC(C)C)NC(=O)[C@H](CO)NC(=O)[C@H](CCCNC(=N)N)NC(=O)[C@H](CO)NC1=O) [((N-Me)G)-IC+SRSLPP-IC+I-((2-Me)P)-D-OH]"
measurement_label = "human MASP1 IC50"
uom = "nM"
endpoint_result = 16

[[record]]
binder = "Ac-ICSRS[tBuAla]PPI[Pen]IPD-NH2 (disulfide 2-10; SMILES CC[C@H](C)[C@H](NC(C)=O)C(=O)N[C@H]1CSSC(C)(C)[C@@H](C(=O)N[C@H](C(=O)N2CCC[C@H]2C(=O)N[C@@H](CC(=O)O)C(N)=O)[C@@H](C)CC)NC(=O)[C@H]([C@@H](C)CC)NC(=O)[C@@H]2CCCN2C(=O)[C@@H]2CCCN2C(=O)[C@H](CC(C)(C)C)NC(=O)[C@H](CO)NC(=O)[C@H](CCCNC(=N)N)NC(=O)[C@H](CO)NC1=O) [Ac-IC+SRS-((tBu)A)-PPI-(Pen)+IPD-NH2]"
measurement_label = "human MASP1 IC50"
uom = "nM"
endpoint_result = 16

[[record]]
binder = "[Sar][Sar][Sar][Sar][Sar]ICSRS[tBuAla]PPI[Pen]IP-NH2 (disulfide 7-15; N-terminus assumed; SMILES CC[C@H](C)[C@H](NC(=O)CN(C)C(=O)CN(C)C(=O)CN(C)C(=O)CN(C)C(=O)CNC)C(=O)N[C@H]1CSSC(C)(C)[C@@H](C(=O)N[C@H](C(=O)N2CCC[C@H]2C(N)=O)[C@@H](C)CC)NC(=O)[C@H]([C@@H](C)CC)NC(=O)[C@@H]2CCCN2C(=O)[C@@H]2CCCN2C(=O)[C@H](CC(C)(C)C)NC(=O)[C@H](CO)NC(=O)[C@H](CCCNC(=N)N)NC(=O)[C@H](CO)NC1=O) [((N-Me)G)-((N-Me)G)-((N-Me)G)-((N-Me)G)-((N-Me)G)-IC+SRS-((tBu)A)-PPI-(Pen)+IP-NH2]"
measurement_label = "human MASP1 IC50"
uom = "nM"
endpoint_result = 11

[[record]]
binder = "Ac-ICSRS[tBuAla]PPI[NMeC]I-NH2 (disulfide 2-10; SMILES CC[C@H](C)[C@H](NC(=O)[C@@H]1CSSC[C@H](NC(=O)[C@@H](NC(C)=O)[C@@H](C)CC)C(=O)N[C@@H](CO)C(=O)N[C@@H](CCCNC(=N)N)C(=O)N[C@@H](CO)C(=O)N[C@@H](CC(C)(C)C)C(=O)N2CCC[C@H]2C(=O)N2CCC[C@H]2C(=O)N[C@@H]([C@@H](C)CC)C(=O)N1C)C(N)=O) [Ac-IC+SRS-((tBu)A)-PPI-((N-Me)C)+I-NH2]"
measurement_label = "human MASP1 IC50"
uom = "nM"
endpoint_result = 14

